- Tested on: BT-549 breast
- METHOD NOTES: NCI tumour cell line growth inhibition, 48 h
I'd appreciate it if you could supply TGI values for the items below.
One number for each entry, in µM.

COMPOUND STRING	MEASURED ATTRIBUTE	VALUE REPORTED
O=C1/C(=C/c2ccccc2[N+](=O)[O-])Cc2ccccc21	TGI	4.49

In: Provide only the value of recorded TGI for `CCOC(=O)c1c(C)nc2c1c(CN(C)C)c(O)c1[nH]c(C)c(C)nc12`
Out: 76

---

- Test system: HS 578T breast
- METHOD NOTES: NCI tumour cell line growth inhibition, 48 h
MEASURED ATTRIBUTE: TGI (µM)
Answers are plain numbers, in µM.

// below: answered molecules
MOLECULE	MEASUREMENT TARGET	MEASUREMENT UNIT	TGI
N#Cc1sc2c(c1OC(=O)c1ccccc1)c(=O)n(-c1ccccc1)c(=S)n2-c1ccccc1	HS 578T breast	µM	52.2
Cc1cc(S(=O)(=O)/N=C(/N)Nc2ccccc2O)c(SCc2ccccc2)cc1Cl	HS 578T breast	µM	47.9
COc1ccc2cc1Oc1ccc(cc1)C[C@H]1c3c(cc4c(c3Oc3cc5c(cc3OC)CCN(C)[C@@H]5C2)OCO4)CCN1C	HS 578T breast	µM	46.2

Let us examine a further case.
In: Provide only the value of recorded TGI for OCc1ccc(N2CCCC2c2ccccc2)cc1Cl (configuration not stated)
Out: 30.8

---

- Tested on: SR leukemia
- METHOD NOTES: NCI tumour cell line growth inhibition, 48 h
MEASURED ATTRIBUTE: TGI

// below: answered molecules
MOLECULE	TGI
CNC(=O)C1(N)c2ccccc2C=Cc2ccccc21	> 100 µM
N#Cc1sc2c(c1OC(=O)c1ccccc1)c(=O)n(-c1ccccc1)c(=S)n2-c1ccccc1	> 100 µM
C[n+]1ccc(/C2=C3\C=CC(=N3)/C(c3cc[n+](C)cc3)=c3/cc/c([nH]3)=C(\c3cc[n+](C)cc3)C3=N/C(=C(/c4cc[n+](C)cc4)C4C=CC2N4)C=C3)cc1	> 32.9 µM
COc1cc(C(=O)C/C(CCC(=O)Nc2ccccc2[N+](=O)[O-])=N\NC(N)=O)ccc1O	> 100 µM

For every record below, what is its TGI?
1. CC1CC(C)C(C#N)N(C)c2ccccc21 (centres undefined)
2. OCC1OC(n2cnc3c(N/N=C\c4ccccn4)ncnc32)C(O)C1O (centres undefined)
3. NC(CSC1c2ccccc2-c2ccccc21)C(=O)O (centres undefined)
4. COc1ccccc1-c1cc(=O)c2cc(C)cnc2[nH]1
5. COc1ccc2c(c1)C(=O)C1CC(=O)CCC21 (centres undefined)

Out:
1: 92.2 µM; 2: > 87.7 µM; 3: > 100 µM; 4: > 100 µM; 5: > 100 µM

For every record below, what is its TGI?
1. CCOc1ccccc1C(=O)N1CCN(c2cc(Cl)cc(Cl)c2)CC1
2. COc1cccc(NC(=O)CSc2nnc(-c3ccc(NC(C)=O)cc3)o2)c1
3. CCN1C(=O)c2cc(OC)c(OC)cc2C(=O)C12OC(=O)c1cc3c(cc12)OCO3 (centres undefined)
4. C=C(Br)CNC(=O)Nc1ccc(Cl)c(Cl)c1

Out:
1: 22 µM; 2: > 100 µM; 3: > 100 µM; 4: 62.9 µM

For every record below, what is its TGI?
1. OCC12C3C4C5C3C1C5C42 (centres undefined)
2. O=C1C=CC2(C=C1)O[C@H](Cc1ccccc1)[C@@H](Cc1ccccc1)O2
3. COc1c(F)c(F)c(/C(O)=C\c2nc3ccccc3[nH]c2=O)c(F)c1F
4. COc1cc(N2C(=O)[C@H](O)C2c2ccc(SC)cc2)cc(OC)c1OC (some centres undefined)
5. CCOC(=O)C1=C(C)N(c2ccc(Cl)cc2)[C@]2(C#N)C(O)=C(Cl)C(Cl)=C(O)[C@]12C#N

Out:
> 100 µM
3.26 µM
> 10 µM
> 100 µM
> 100 µM

In: Provide only the value of recorded TGI for `O=[N+]([O-])c1nccn1CCCNc1ccnc2cc(Cl)ccc12`
Out: > 75.3 µM
